Where do these numbers come from? They come from ChEMBL document CHEMBL3784937.

- Species: Homo sapiens
- measurementProtocol: Inhibition of human recombinant topoisomerase 1B expressed in Saccharomyces cerevisiae using plasmid DNA as substrate assessed as DNA relaxation at 100 uM preincubated with substrate for 15 mins followed by enzyme addition after 15 secs to 3 mins by agarose gel electrophoresis
Active and inactive are the calls of the source. No cut-off for these calls is given here.

>  <molecule>
Fc1cccc([C@H]2Nc3cccnc3[C@H]3c4ccccc4C[C@H]32)c1 (relative stereo)

>  <inhibition>
Active

$$$$
>  <molecule>
Fc1ccc([C@H]2Nc3cccnc3[C@H]3c4ccccc4C[C@H]32)c(F)c1 (relative stereo)

>  <inhibition>
Active

$$$$
>  <molecule>
c1ccc2c(c1)C[C@@H]1[C@H]2c2ncccc2N[C@@H]1c1ccncc1 (relative stereo)

>  <inhibition>
Active

$$$$
>  <molecule>
Fc1ccc([C@H]2Nc3cccnc3[C@H]3c4ccccc4C[C@H]32)cc1F (relative stereo)

>  <inhibition>
Active

$$$$
